Tested on: MvaT
Test: PBM 8-mer E-score (mean of HK and ME arrays) (E-score (dimensionless, -0.5 to 0.5)); higher = stronger relative binding preference
The full ranking holds about 33,000 sequences; the median of “E-score (dimensionless, -0.5 to 0.5)” is about -0.058, and the highest 2% start at about 0.35. What follows is part of a selection rich in the highest values, with near analogues and random picks from the rest.
PBM 8-mer E-score of 0.2 or higher: t. Under 0.2: f.

Some solved entries appear below for comparison.
CHAIN: AACCCAGT
CATEGORY_LABEL: f
//
CHAIN: CTACCTAC
CATEGORY_LABEL: f
//
CHAIN: CCTTTTGA
CATEGORY_LABEL: f
//
CHAIN: CAAAGTAA
CATEGORY_LABEL: t
//
CHAIN: TAAAGTAA
CATEGORY_LABEL: t

Query block: Quick check, PBM 8-mer E-score >= 0.2? ATAACTAG
Result block: t

Query block: In plain terms: is recorded PBM 8-mer E-score at least 0.2 for CATTACAA ?
Result block: f

Query block: Check the entry ATTAATCA : does PBM 8-mer E-score equal or exceed 0.2?
Result block: t

Query block: Is it the case that CTTTTCTC has PBM 8-mer E-score reaching or exceeding 0.2?
Result block: f

Query block: Quick check: does ATAACAAT have PBM 8-mer E-score greater than or equal to 0.2?
Result block: t
